Taken from the supplement of paper PMC8728848.

# System: Fuc(a1-2)Gal(b1-4)[Fuc(a1-3)]GlcNAc(b1-2)Man(a1-3)[Fuc(a1-2)Gal(b1-4)[Fuc(a1-3)]GlcNAc(b1-2)Man(a1-6)]Man(b1-4)GlcNAc(b1-4)GlcNAc
# Assay text: glycan array binding signal (z-score within array); higher = stronger binding
# Conditions used: glycan notation: IUPAC condensed, linker removed
Only a selection was taken, and the strongest signals are over-represented in it overall.
Metric name: glycan array binding signal (z-score)
Give the value as a plain number.

**Q:** Name the recorded glycan array binding signal (z-score) of the binder listed here: SAG3 (Toxoplasma gondii), Q9BJ39 (protein) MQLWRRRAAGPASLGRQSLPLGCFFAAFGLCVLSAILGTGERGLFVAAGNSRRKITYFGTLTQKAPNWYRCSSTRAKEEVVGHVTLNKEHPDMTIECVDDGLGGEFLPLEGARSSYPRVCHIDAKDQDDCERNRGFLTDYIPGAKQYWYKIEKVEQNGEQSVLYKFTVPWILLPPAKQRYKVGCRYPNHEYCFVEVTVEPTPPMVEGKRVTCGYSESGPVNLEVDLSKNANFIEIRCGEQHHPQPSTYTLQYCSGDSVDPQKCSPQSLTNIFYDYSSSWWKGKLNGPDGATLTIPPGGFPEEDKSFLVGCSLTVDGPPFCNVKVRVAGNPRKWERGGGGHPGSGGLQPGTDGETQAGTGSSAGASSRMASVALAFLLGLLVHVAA
**A:** 2.31
